- experimentalTarget: Cytochrome P450 3A4 (Homo sapiens)
- Sequence (P08684 whole entry): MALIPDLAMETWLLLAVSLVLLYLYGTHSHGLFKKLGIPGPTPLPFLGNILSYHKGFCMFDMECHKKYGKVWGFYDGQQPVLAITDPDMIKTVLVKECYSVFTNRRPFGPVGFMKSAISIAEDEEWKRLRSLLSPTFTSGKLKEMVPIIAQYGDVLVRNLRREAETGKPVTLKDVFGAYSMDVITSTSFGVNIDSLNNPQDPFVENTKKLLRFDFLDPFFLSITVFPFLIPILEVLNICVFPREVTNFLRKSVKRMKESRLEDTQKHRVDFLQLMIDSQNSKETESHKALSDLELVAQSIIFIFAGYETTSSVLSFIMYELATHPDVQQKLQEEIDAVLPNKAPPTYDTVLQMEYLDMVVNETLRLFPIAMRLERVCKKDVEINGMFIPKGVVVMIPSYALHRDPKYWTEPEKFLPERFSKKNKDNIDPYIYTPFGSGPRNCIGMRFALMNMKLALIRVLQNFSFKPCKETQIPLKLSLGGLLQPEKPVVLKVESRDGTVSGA
- methodSummary: Time-dependent inhibition of CYP3A4 in human liver microsome using midazolam as substrate by TDI shift assay
propertyName: pIC50
Numbers only, as −log10 of the molar value.

In the examples that follow, each entry is paired with its recorded pIC50.
- compound: "CCNC(=O)Nc1ccc(-c2nc3c(c(N4CCOC[C@@H]4C)n2)CCN(c2cc(C)ncn2)C3)cc1"
  pIC50: 5.08
- compound: "CCNC(=O)Nc1ccc(-c2nc3c(c(N4CCOC[C@@H]4C)n2)CCN(c2ncc(F)cn2)C3)cc1"
  pIC50: 5.85

Endpoint output: pIC50 of CCNC(=O)Nc1ccc(-c2nc3c(c(N4CCOC[C@@H]4C)n2)CCN(c2ccnc(C)n2)C3)cc1 . Value?
5.48
